Target: Neuromedin-B receptor (Homo sapiens)
Sequence (P28336 whole entry): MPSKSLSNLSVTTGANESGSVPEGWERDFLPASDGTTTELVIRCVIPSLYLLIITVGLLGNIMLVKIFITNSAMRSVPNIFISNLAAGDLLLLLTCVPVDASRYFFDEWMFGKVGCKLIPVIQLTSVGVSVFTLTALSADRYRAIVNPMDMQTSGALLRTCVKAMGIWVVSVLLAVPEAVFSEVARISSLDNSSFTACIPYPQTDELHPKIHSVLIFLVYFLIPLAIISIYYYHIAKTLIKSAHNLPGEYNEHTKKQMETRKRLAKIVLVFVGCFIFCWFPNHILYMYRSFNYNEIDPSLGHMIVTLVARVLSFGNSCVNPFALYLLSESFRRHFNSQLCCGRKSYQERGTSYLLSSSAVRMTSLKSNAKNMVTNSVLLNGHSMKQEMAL
Assay: Displacement of [125I]-(D-Tyr0)NMB from human neuromedin B receptor transfected in HEK293 cells
Assay type: cell-based
pIC50: −log10 of the molar value.
Mark fulfilled for reported pIC50 of 6 or greater; mark not fulfilled for anything smaller.

Compound	Qualitative label
Cc1ccc2c(c1)NC(c1ccccc1C(F)(F)F)C1=C(CC3(CCCC3)CC1=O)N2 (single isomer, unassigned; (-))	not fulfilled
Cc1ccc2c(c1)NC(c1ccccc1)C1=C(CC(C)(C)CC1=O)N2 (centres undefined)	not fulfilled
CC1(C)CC(=O)C2=C(C1)Nc1ccc(C(F)(F)F)cc1NC2c1c(F)cccc1Cl (centres undefined)	fulfilled
CSc1ccccc1C1Nc2cc(C)ccc2NC2=C1C(=O)CC1(CCCC1)C2 (centres undefined)	fulfilled
COc1ccc2c(c1)NC(c1c(F)cccc1Cl)C1=C(CC(C)(C)CC1=O)N2 (centres undefined)	not fulfilled
Cc1ccc2c(c1)NC(c1c(F)cccc1Cl)C1=C(CC(C)(C)CC1=O)N2 (centres undefined)	fulfilled
CC1(C)CC(=O)C2=C(C1)Nc1ccc(O)cc1NC2c1c(F)cccc1Cl (centres undefined)	not fulfilled
Cc1ccc2c(c1)NC(c1c(F)cccc1Cl)C1=C(CC(c3ccc(N(C)C)cc3)CC1=O)N2 (centres undefined)	not fulfilled
Cc1ccc2c(c1)N(C)C(c1c(F)cccc1Cl)C1=C(CC(C)(C)CC1=O)N2 (centres undefined)	fulfilled
Cc1ccc2c(c1)NC(c1c(F)cccc1Cl)C1=C(CC(C)CC1=O)N2 (centres undefined)	fulfilled
Cc1ccc2c(c1)NC(c1ccccc1Cl)C1=C(CC3(CCCC3)CC1=O)N2 (centres undefined)	fulfilled

----------
Target: Neuromedin-B receptor (Homo sapiens)
Assay: Displacement of [125I]-(D-Tyr0)NMB from human neuromedin B receptor transfected in HEK293 cells
Format: cell-based
pIC50: −log10 of the molar value.
pIC50 listing for selected compounds.
Observation type: pIC50

Compound	Assay system	Observation type	Observed
COc1ccccc1C1Nc2cc(C)ccc2NC2=C1C(=O)CC(C)(C)C2 (stereo not drawn)	Neuromedin-B receptor (Homo sapiens)	pIC50	5.96
Cc1ccc2c(c1)NC(c1c(F)cccc1Cl)C1=C(CC(C(C)C)CC1=O)N2 (stereo not drawn)	Neuromedin-B receptor (Homo sapiens)	pIC50	6.09
CC1(C)CC(=O)C2=C(C1)Nc1ccc(C#N)cc1NC2c1c(F)cccc1Cl (stereo not drawn)	Neuromedin-B receptor (Homo sapiens)	pIC50	5.89

Value source: ChEMBL document CHEMBL1152392
